These entries and their values trace back to paper PMC4174307.

Recorded Ki by entry
TGT: P2Y12R (WT) (Homo sapiens)
Your answer should be a plain number; it is taken to be in nM.

COMPOUND | UNIT_SYMBOL | DATA_VALUE
Nc1ncnc2c1ncn2[C@@H]1O[C@H](COP(=O)(O)OP(=O)(O)O)[C@@H](O)[C@H]1O [ADP] | nM | 332

What reported Ki corresponds to CSc1nc(N)c2ncn([C@@H]3O[C@H](COP(=O)(O)OP(=O)(O)OP(=O)(O)O)[C@@H](O)[C@H]3O)c2n1 [2MeSATP] on P2Y12R (WT) (Homo sapiens)?
119

Entry CCCSc1nc(N[C@@H]2C[C@H]2c2ccc(F)c(F)c2)c2nnn([C@@H]3C[C@H](OCCO)[C@@H](O)[C@H]3O)c2n1 [Ticagrelor] , system P2Y12R (WT) (Homo sapiens): what Ki was measured?
454

What is its Ki for P2Y12R (WT) (Homo sapiens)? Entry: CSc1nc(N)c2ncn([C@@H]3O[C@H](COP(=O)(O)OP(=O)(O)O)[C@@H](O)[C@H]3O)c2n1 [2MeSADP, 2-methylthio-adenosine 5′-diphosphate]
120

Request body: readout Ki, system P2Y12R (WT) (Homo sapiens), query Nc1c(S(=O)(=O)O)cc(Nc2ccc(Nc3ccccc3)c(S(=O)(=O)O)c2)c2c1C(=O)c1ccccc1C2=O [PSB-0739] . Return the value.
275

Kindly state the measured Ki obtained for CCOC(=O)c1cc(C#N)c(N2CCC(C(=O)NS(=O)(=O)Cc3ccccc3)CC2)nc1C [AZD1283] with P2Y12R (WT) (Homo sapiens).
31.5

---

TGT: P2Y12R (WT) (Homo sapiens, UniProt Q9H244, D294N)
Sequence (Q9H244 whole entry D294N): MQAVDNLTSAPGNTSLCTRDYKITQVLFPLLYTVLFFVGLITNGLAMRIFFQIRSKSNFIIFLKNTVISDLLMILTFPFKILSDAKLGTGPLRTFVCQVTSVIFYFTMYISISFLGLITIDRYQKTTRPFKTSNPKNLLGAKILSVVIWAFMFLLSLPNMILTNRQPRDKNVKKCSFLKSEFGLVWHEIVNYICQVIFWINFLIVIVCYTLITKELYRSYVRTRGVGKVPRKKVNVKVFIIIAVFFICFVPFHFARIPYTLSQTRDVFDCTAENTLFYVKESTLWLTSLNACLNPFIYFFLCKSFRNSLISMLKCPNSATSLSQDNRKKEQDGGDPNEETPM
MEASUREMENT_DESCRIPTION: saturation radioligand binding, membranes
ASSAY_METRIC: pKd
Remember the convention: pKd equals -log10 of concentration in molar.

Sample CSc1nc(N)c2ncn([C@@H]3O[C@H](COP(=O)(O)OP(=O)(O)O)[C@@H](O)[C@H]3O)c2n1 [2MeSADP, 2-methylthio-adenosine 5′-diphosphate] — what was its pKd?
7.47

---

As shown below, each of these compounds has a reported Ki value.
TGT: P2Y12R (WT) (Homo sapiens, UniProt Q9H244, D294N)
MEASUREMENT_DESCRIPTION: [3H]2MeSADP displacement, membranes
Report the figure in nM without appending any unit label.

Solved cases (4 shown):
COMPOUND | UNIT_SYMBOL | Ki
CSc1nc(N)c2ncn([C@@H]3O[C@H](COP(=O)(O)OP(=O)(O)OP(=O)(O)O)[C@@H](O)[C@H]3O)c2n1 | nM | 82.4
CCCSc1nc(N[C@@H]2C[C@H]2c2ccc(F)c(F)c2)c2nnn([C@@H]3C[C@H](OCCO)[C@@H](O)[C@H]3O)c2n1 | nM | 424
CSc1nc(N)c2ncn([C@@H]3O[C@H](COP(=O)(O)OP(=O)(O)O)[C@@H](O)[C@H]3O)c2n1 [2MeSADP, 2-methylthio-adenosine 5′-diphosphate] | nM | 80.8
Nc1ncnc2c1ncn2[C@@H]1O[C@H](COP(=O)(O)OP(=O)(O)O)[C@@H](O)[C@H]1O | nM | 169

Now, please, on to the next compound.
Notebook: pull reported Ki for P2Y12R (WT) (Homo sapiens, UniProt Q9H244, D294N), entry Nc1c(S(=O)(=O)O)cc(Nc2ccc(Nc3ccccc3)c(S(=O)(=O)O)c2)c2c1C(=O)c1ccccc1C2=O
72.8
